Molecular target: CK1δ (Homo sapiens)
Sequence (P48730 whole entry): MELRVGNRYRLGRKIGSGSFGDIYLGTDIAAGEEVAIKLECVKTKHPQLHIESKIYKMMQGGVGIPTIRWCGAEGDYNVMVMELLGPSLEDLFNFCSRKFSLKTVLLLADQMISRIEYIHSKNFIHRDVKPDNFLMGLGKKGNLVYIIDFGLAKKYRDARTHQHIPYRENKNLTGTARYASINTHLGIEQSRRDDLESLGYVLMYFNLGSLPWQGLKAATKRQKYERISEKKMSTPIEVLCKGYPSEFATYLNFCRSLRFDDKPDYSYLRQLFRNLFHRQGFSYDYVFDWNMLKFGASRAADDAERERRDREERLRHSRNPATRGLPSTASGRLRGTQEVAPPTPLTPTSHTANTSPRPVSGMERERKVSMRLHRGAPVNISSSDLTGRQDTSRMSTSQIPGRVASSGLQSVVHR
Assay: CK1δ kinase assay (Caliper LabChip electrophoretic separation of fluoresceinated peptide substrate and product)
Assay type: biochemical
Details: 200 pM CK1δ, 50 μM ATP, 1.5 μM peptide, 22 hours at room temperature; read-out: CK1δ IC50 range
pIC50: −log10 of the molar value.

{"molecule": "COc1ccc([C@H]2C[C@@H](NC(=O)N3CCn4nc(-c5ccc(F)c(Cl)c5)c(C(N)=O)c4C3)C2)cc1 [Compound 279]", "pIC50": "8.00 to 11.00"}
{"molecule": "CC1(CNC(=O)N2CCn3nc(-c4ccc(F)c(Cl)c4)c(C(N)=O)c3C2)CC(F)(F)C1 [Compound 229]", "pIC50": "8.00 to 11.00"}
{"molecule": "CC(C)(C)NC(=O)N1CCn2nc(-c3cc4ccccc4nc3Cl)c(C(N)=O)c2C1 [Compound 140]", "pIC50": "5.70 to 7.00"}
{"molecule": "CC1Cn2nc(-c3ccc(F)c(Cl)c3)c(C(N)=O)c2CN1C(=O)NC1(C)CC(F)(F)C1 (single isomer, unassigned) [Compound 345]", "pIC50": "8.00 to 11.00"}
{"molecule": "NC(=O)c1c(-c2ccc(F)c(Cl)c2)nn2c1CN(C(=O)NC1(C(F)F)CCC1)CC2 [Compound 235]", "pIC50": "8.00 to 11.00"}
{"molecule": "NC(=O)c1c(-c2ccc(F)c(Cl)c2)nn2c1CN(C(=O)NC1CC(F)(F)C1)CC21CC1 [Compound A133]", "pIC50": "8.00 to 11.00"}
{"molecule": "CC1(NC(=O)N2CCn3nc(-c4ccc(F)c(Cl)c4)c(C(N)=O)c3C2)CC2(C1)CC2(F)F (single isomer, unassigned) [Compound 327]", "pIC50": "8.00 to 11.00"}

====

Molecular target: CK1δ (Homo sapiens)
Test: CK1δ kinase assay (Caliper LabChip electrophoretic separation of fluoresceinated peptide substrate and product)
Format: biochemical
Details: 200 pM CK1δ, 50 μM ATP, 1.5 μM peptide, 22 hours at room temperature; read-out: CK1δ IC50 range
IC50 for assorted compounds

{"compound": "CO[C@H]1C[C@@H](NC(=O)N2CCn3nc(-c4cccc(Cl)c4)c(C(N)=O)c3C2)C1", "IC50": "0.01 to 10 nM"}
{"compound": "N#Cc1ccc([C@H]2C[C@@H](NC(=O)N3CCn4nc(-c5ccc(Cl)c(Cl)c5)c(C(N)=O)c4C3)C2)cc1", "IC50": "0.01 to 10 nM"}
{"compound": "NC(=O)c1c(-c2ccc(F)c(Cl)c2)nn2c1CN(C(=O)NC1(COC(F)F)CCC1)CC2", "IC50": "0.01 to 10 nM"}
{"compound": "NC(=O)c1c(-c2ccc(F)c(Cl)c2)nn2c1CN(C(=O)NCC1CC(F)(F)C1)CC2", "IC50": "0.01 to 10 nM"}
{"compound": "CC(C)(C)NC(=O)N1CCn2nc(-c3cc(F)cc(C#N)c3)c(C(N)=O)c2C1", "IC50": "10 to 100 nM"}
{"compound": "CC1(NC(=O)N2Cc3c(C(N)=O)c(-c4ccc(F)c(Cl)c4)nn3[C@H]3COC[C@H]32)CC(F)(F)C1", "IC50": "0.01 to 10 nM"}
{"compound": "CC(C)(C)C1CN(C(=O)NC2CC(F)(F)C2)Cc2c(C(N)=O)c(-c3ccc(F)c(Cl)c3)nn21 (single isomer, unassigned) [Compound A122]", "IC50": "0.01 to 10 nM"}
{"compound": "NC(=O)c1c(-c2ccc(Cl)c(Cl)c2)nn2c1CN(C(=O)NC1CC3(C1)CC(F)(F)C3)CC2", "IC50": "0.01 to 10 nM"}
{"compound": "COc1ccc(CCNC(=O)N2CCn3nc(-c4cccc(F)c4)c(C(N)=O)c3C2)cc1", "IC50": "10 to 100 nM"}
{"compound": "C[C@@]12C[C@H]3C[C@@](Cl)(C1)C[C@](NC(=O)N1CCn4nc(-c5ccc(F)c(Cl)c5)c(C(N)=O)c4C1)(C3)C2", "IC50": "0.01 to 10 nM"}
{"compound": "CC(C)(C)NC(=O)N1CCn2nc(-c3cccc(N)c3)c(C(N)=O)c2C1", "IC50": "10 to 100 nM"}
{"compound": "NC(=O)c1c(-c2ccc(F)c(Cl)c2)nn2c1CN(C(=O)NC1CC(F)(F)C1)CC2C(F)(F)F (single isomer, unassigned) [Compound A126]", "IC50": "0.01 to 10 nM"}
{"compound": "CC(C)(C)NC(=O)N1Cc2c(C(N)=O)c(-c3ccc(Cl)c(Cl)c3)nn2C(C(F)F)C1 (centres unmarked) [Compound A31]", "IC50": "10 to 100 nM"}
{"compound": "NC(=O)c1c(-c2cccc(Cl)c2)nn2c1CN(C(=O)N[C@H]1C[C@@H](OC(F)(F)F)C1)CC2", "IC50": "0.01 to 10 nM"}
{"compound": "CC1(CNC(=O)N2CCn3nc(-c4cccc(Cl)c4)c(C(N)=O)c3C2)CC(F)(F)C1", "IC50": "0.01 to 10 nM"}
{"compound": "NC(=O)c1c(-c2cccc(Cl)c2)nn2c1CN(C(=O)NC1CC(F)(F)C1)CC2", "IC50": "10 to 100 nM"}
{"compound": "C[C@@H]1CN(C(=O)NC2CC(F)(F)C2)Cc2c(C(N)=O)c(-c3ccc(Cl)c(Cl)c3)nn21", "IC50": "0.01 to 10 nM"}
{"compound": "CC1(NC(=O)N2Cc3c(C(N)=O)c(-c4ccc(F)c(Cl)c4)nn3CC2C2CC2)CC(F)(F)C1 (single isomer, unassigned) [Compound 348]", "IC50": "100 to 2000 nM"}
{"compound": "CC1(CNC(=O)N2CCn3nc(-c4ccc(Cl)c(Cl)c4)c(C(N)=O)c3C2)CC(F)(F)C1", "IC50": "0.01 to 10 nM"}
{"compound": "CC1(NC(=O)N2CCn3nc(-c4cccc(Cl)c4)c(C(N)=O)c3C2)CCC1", "IC50": "0.01 to 10 nM"}
{"compound": "C[C@H]1CN(C(=O)NC2CC(F)(F)C2)Cc2c(C(N)=O)c(-c3ccc(Cl)c(Cl)c3)nn21", "IC50": "0.01 to 10 nM"}
{"compound": "NC(=O)c1c(-c2cccc(F)c2)nn2c1CN(C(=O)Nc1ccc(F)cc1F)CC2", "IC50": "10 to 100 nM"}
{"compound": "CC(C)(C)NC(=O)N1Cc2c(C(N)=O)c(-c3ccc(F)c(Cl)c3)nn2C(CCF)C1 (single isomer, unassigned) [Compound A103]", "IC50": "0.01 to 10 nM"}
{"compound": "N#CCC1(NC(=O)N2CCn3nc(-c4ccc(Cl)c(Cl)c4)c(C(N)=O)c3C2)CCC1", "IC50": "0.01 to 10 nM"}
{"compound": "Cc1ccc(NC(=O)N2CCn3nc(-c4cccc(F)c4)c(C(N)=O)c3C2)nn1", "IC50": "100 to 2000 nM"}
{"compound": "CC(C)(C)NC(=O)N1CCn2nc(-c3ccc(S(C)(=O)=O)cc3)c(C(N)=O)c2C1", "IC50": "100 to 2000 nM"}
{"compound": "NC(=O)c1c(-c2cccc(Cl)c2)nn2c1CN(C(=O)Nc1ccc(OC(F)(F)F)cc1)CC2", "IC50": "0.01 to 10 nM"}
{"compound": "CC1CN(C(=O)NC(C)(C)C)Cc2c(C(N)=O)c(-c3ccc(Cl)c(Cl)c3)nn21 (centres unmarked) [Compound A33]", "IC50": "0.01 to 10 nM"}
{"compound": "CC(C)(C)NC(=O)N1CCn2nc(-c3ccc(F)cc3)c(C(N)=O)c2C1", "IC50": "10 to 100 nM"}
